Test: Pharmacokinetic profile of IUdR (20 mg/kg) with and without Tipiracil in rats following single oral administration
Format: in vivo, male Sprague-Dawley rats
Details: male, Sprague-Dawley, rat, plasma, oral, 20 mg/kg, PO-20 mg/kg Compound A alone or + 7.9 mg/kg Compound B, 1 hr, individual animals, LLOQ 5 ng/mL, read-out: Plasma Concentration of Compound A
OUTCOME_MEASURE: concentration at 1 hr (ng/mL)
The answer is to be given in ng/mL; state only the numeric part.

# input Using the record for O=c1[nH]c(=O)n([C@H]2C[C@H](O)[C@@H](CO)O2)cc1I , state its measured concentration at 1 hr.
# output 27.2
